- protocolSummary: in vitro
- settings: human, hela cells, % viability
valueKind: viability at 28.5 h, 10 µM (%)
Answer with a number only, understood to be in %.

Solved entries (count: 5):
{"molecule": "CN1CCN(C)C(COc2cc(C(F)(F)F)ccn2)C1 (stereo not shown)", "uom": "%", "valueReported": 90.7}
{"molecule": "Cc1nc(SCC(N)=O)nc(C)c1CCC(=O)NCc1ccc(F)cc1", "uom": "%", "valueReported": 88.5}
{"molecule": "N#Cc1ccsc1NC(=O)CSc1nnc[nH]1", "uom": "%", "valueReported": 87.7}
{"molecule": "Cc1noc(C)c1S(=O)(=O)Nc1ccnn1C", "uom": "%", "valueReported": 90.1}
{"molecule": "O=C(O)c1ccc2[nH]c3c(c2c1)CCCC3", "uom": "%", "valueReported": 90.9}

Prompt line: Query: viability at 28.5 h, 10 µM; subject: CCOc1cc([N+](=O)[O-])cc(C=O)c1OC(C)C(=O)O (stereo not shown)
Response line: 89.6

Prompt line: Query: viability at 28.5 h, 10 µM; subject: `Cc1cccc2cnc(C3CCN(C(=O)c4cnn(C)c4C)CC3)cc12`
Response line: 88.2
